These entries and their values trace back to patent US12479827B2.

target: PKK in kaolin activated human platelet poor plasma (Homo sapiens); construct: Platelet poor plasma (PPP) obtained from human wholeblood; test: Inhibition of PKK in kaolin activated human PPP; conditions: 25-750 μg/mL kaolin, global fit, text b200 calls the values IC90
pIC50: −log10 of the molar value.
Assay metric: pIC50

// below: answered molecules
IN: State its pIC50: Cn1cnc2c1CC[C@H]2NC(=O)c1cn(Cc2ccc(N3CC4CC4C3)c(C#N)c2)cn1 (stereo partly shown)
OUT: 6.46

IN: Return pIC50 for the following molecule: Cc1nc(N2CC3CC3C2)ncc1Cn1cc(C(=O)N[C@@H]2CCc3c2ncn3C)c2cncnc21 (stereo partly shown)
OUT: 5.84

[a] Cn1cnc2c1CC[C@H]2NC(=O)c1cnn(Cc2ccc(N3CC4C(C3)C4(F)F)cn2)c1 (stereo partly shown)
[b] Cn1cnc2c1CC[C@H]2NC(=O)c1c[nH]c(Cc2ccc(N3CC4C(C3)C4(F)F)nc2Cl)c1 (stereo partly shown)
IN: Quick one: lower pIC50, a or b ? Please reply using the label of the selected record.
OUT: b

---

target: PKK in kaolin activated human platelet poor plasma (Homo sapiens, UniProt P03952); construct: Platelet poor plasma (PPP) obtained from human wholeblood; assay: Inhibition of PKK in kaolin activated human PPP; details: 25-750 μg/mL kaolin, global fit, text b200 calls the values IC90;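 also: readout is the rate of fluorogenic substrate cleavage in rfu per min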
Sequence (P03952 391-638 limits assumed): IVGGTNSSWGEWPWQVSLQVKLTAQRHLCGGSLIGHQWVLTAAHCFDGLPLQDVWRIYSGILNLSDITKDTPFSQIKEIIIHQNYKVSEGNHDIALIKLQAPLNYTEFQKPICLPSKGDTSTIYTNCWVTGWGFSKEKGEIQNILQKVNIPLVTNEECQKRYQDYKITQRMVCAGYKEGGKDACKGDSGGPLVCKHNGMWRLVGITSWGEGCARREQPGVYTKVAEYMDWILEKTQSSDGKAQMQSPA
Sequence (P03952 20-390 limits assumed): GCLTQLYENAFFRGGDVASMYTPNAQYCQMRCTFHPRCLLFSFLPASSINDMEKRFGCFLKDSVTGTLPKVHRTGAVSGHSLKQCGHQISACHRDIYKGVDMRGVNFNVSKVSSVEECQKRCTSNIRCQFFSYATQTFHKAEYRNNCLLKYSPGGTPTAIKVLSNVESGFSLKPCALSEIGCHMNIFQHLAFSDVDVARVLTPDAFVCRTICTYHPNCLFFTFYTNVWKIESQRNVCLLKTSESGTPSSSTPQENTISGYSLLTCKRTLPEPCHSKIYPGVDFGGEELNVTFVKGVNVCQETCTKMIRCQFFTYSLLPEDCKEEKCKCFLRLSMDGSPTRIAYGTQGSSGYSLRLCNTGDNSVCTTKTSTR
Assay metric: IC50 (nM)

[A] COCc1nn(Cc2ccc(N3CC4CC4C3)nc2C)cc1C(=O)N[C@@H]1CCc2c1ncn2C (stereo partly shown)
[B] Cn1cnc2c1CC[C@H]2NC(=O)c1cn(Cc2ccc(N3CC4CC4C3)nc2)nn1 (stereo partly shown)
[C] Cn1cnc2c1CC[C@H]2NC(=O)c1cn(Cc2ccc(N3CC4C(C3)C4(F)F)cc2F)cn1 (stereo partly shown)
[D] Cn1cnc2c1CC[C@H]2NC(=O)c1cn(Cc2ccc(N3CC4CC4C3)cc2C#N)cn1 (stereo partly shown)
IN: // ranking: key=IC50, reverse=True A ranking is expressed here by listing the labels in the requested order.
OUT: C, A, B, D
(C: 1890 nM, A: 1320 nM, B: 909 nM, D: 138 nM)

---

pIC50: −log10 of the molar value.
Quick note: these are pIC50 numbers for system: UniProt P03952
Assay metric: pIC50

IN: Specify reported pIC50 for the compound shown: Cn1cnc2c1CC[C@H]2NC(=O)c1ccc(Cc2ccc(N3CC4C(C3)C4(F)F)nc2CO)s1 (stereo partly shown)
OUT: 7.96

[A] Cn1cnc2c1CC[C@H]2NC(=O)c1cn(Cc2ccc(N3CC4CC4C3)cc2Br)cn1 (stereo partly shown)
[B] CCc1nc(N2CC3CC3C2)ccc1Cc1ncc(C(=O)N[C@@H]2CCc3c2ncn3C)o1 (stereo partly shown)
IN: Pick the one with the larger pIC50: A vs B Mark your selection by writing its label.
OUT: A
(A: 8.82, B: 8.34)

---

Consider compounds characterized by their IC50 with UniProt P03952.
Assay metric: IC50 (nM)

Solved cases (10 shown):
IN: # return IC50 of Cc1cc(N2CC3C(C2)C3(F)F)ccc1Cn1cc(C(=O)N[C@@H]2CCc3c2ncn3C)cn1 (some centres unmarked) (system: UniProt P03952)
OUT: 3.1

IN: Look up and report measured IC50 (UniProt P03952) for the following compound: Cn1cnc2c1CC[C@H]2NC(=O)c1cnn(Cc2ccc(N3CC4CC4C3)nc2Cl)c1 (some centres unmarked)
OUT: 1.2

IN: State, for UniProt P03952, measured IC50 of the compound listed here: Cc1cc(N2CC3C(C2)C3(F)F)nc(C)c1Cn1cc(C(=O)N[C@@H]2CCc3c2ncn3C)cn1 (some centres unmarked)
OUT: 12.6

IN: Look up and report measured IC50 (UniProt P03952) for the following compound: C[C@H](O)c1nc(N2CC3CC3C2)ccc1Cn1cc(C(=O)N[C@@H]2CCc3c2ncn3C)cn1 (some centres unmarked)
OUT: 1.7

IN: Under UniProt P03952: report IC50 of "COCc1nc(N2CC3(CC3)C2)ccc1Cn1cnc(C(=O)N[C@@H]2CCc3c2ncn3C)c1" .
OUT: 3.3

IN: State IC50 on UniProt P03952. Entry: Cc1nc(N2CC3C(C2)C3(F)F)ccc1Cc1cc(C(=O)N[C@@H]2CCc3c2ncn3C)c[nH]1 (some centres unmarked)
OUT: 5.8

IN: State measured IC50 of the compound Cc1nc(N2CC3C(C2)C3(F)F)ncc1Cn1cc(C(=O)N[C@@H]2CCc3c2ncn3C)cn1 (some centres unmarked) with UniProt P03952.
OUT: 3.5

IN: Enter recorded IC50 with UniProt P03952 for "Cc1nc(N2CC3(CC3)C2)ccc1Cn1cnc(C(=O)N[C@@H]2CCc3c2ncn3C)c1" here.
OUT: 0.8

IN: Specify IC50 for Cn1cnc2c1CC[C@H]2NC(=O)c1cnn(Cc2cnc(N3CC4CC4C3)cc2C(F)(F)F)c1 (some centres unmarked) , system UniProt P03952.
OUT: 4.1

IN: Report its IC50 with UniProt P03952 as the test system: Cc1nc(N2CC3CC3C2)ccc1Cn1cc(C(=O)N[C@@H]2CCc3c2ncn3C)c(C(F)(F)F)n1 (some centres unmarked)
OUT: 1.2

[1] Cn1cnc2c1CC[C@H]2NC(=O)c1cnn(Cc2ccc(N3CC4CC4C3)nc2C(C)(C)O)c1 (some centres unmarked)
[2] Cc1nc(N2CC3C(C2)C3(F)F)ccc1Cn1cnc(C(=O)N[C@@H]2CCc3c2ncn3C)c1 (some centres unmarked)
[3] Cn1cnc2c1CC[C@H]2NC(=O)c1cnn(Cc2ccc(N3CC4CC4C3)nc2)c1 (some centres unmarked)
[4] Cc1nc(N2CC3(CC3)C2)ncc1Cn1cc(C(=O)N[C@@H]2CCc3c2ncn3C)cn1
IN: // smallest IC50 at index 0, largest at the end Enter labels, ranked according to the request.
OUT: 1, 2, 3, 4

---

// values below are IC50; system is Human PKK (Homo sapiens, UniProt P03952)
Sequence (P03952 20-390 limits assumed): as above
Sequence (P03952 391-638 limits assumed): as the sequence (P03952 391-638 limits assumed) above
Assay metric: IC50 (nM)

Worked examples, 3 compounds total:
IN: Could you please provide reported IC50 for Cn1cnc2c1CC[C@H]2NC(=O)c1cn(Cc2ccc(N3CC4CC4C3)nc2C(F)F)cn1 (some centres unmarked) ? Thanks!
OUT: 0.7

IN: Give the measured IC50 for Cn1cnc2c1CC[C@H]2NC(=O)c1cnn(Cc2ccc(N3CC4C(C3)C4(F)F)nc2CO)c1 (some centres unmarked)
OUT: 1.4

IN: Tell me its IC50 given Cc1nc(N2CC3C(C2)C3(F)F)ncc1Cn1cnc(C(=O)N[C@@H]2CCc3c2ncn3C)c1 (some centres unmarked) as the entry.
OUT: 2

[I] Cc1nc(N2CC3CC3C2)ncc1Cn1cc(C(=O)N[C@@H]2CCc3c2ncn3C)cn1 (some centres unmarked)
[II] Cn1cnc2c1CC[C@H]2NC(=O)c1cnn(Cc2ccc(N3CC4C(C3)C4(F)F)cc2Br)c1 (some centres unmarked)
IN: Sort I and II by IC50 descending and give the first. Label of pick, please.
OUT: I

[I] Cc1nc(N2CCC3(CC2)CC(C)(O)C3)ncc1Cn1cc(C(=O)N[C@@H]2CCc3c2ncn3C)cn1
[II] Cc1nc(N2CCC3(CC3)C2)ncc1Cn1cc(C(=O)N[C@@H]2CCc3c2ncn3C)cn1
IN: Between the entries labeled I and II , whose measured IC50 is lower? The response must carry the label of the picked entry.
OUT: II

---

target: PKK in kaolin activated human platelet poor plasma (Homo sapiens, UniProt P03952); construct: Platelet poor plasma (PPP) obtained from human wholeblood; assay: Inhibition of PKK in kaolin activated human PPP; settings: 25-750 μg/mL kaolin, global fit, text b200 calls the values IC90;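 also: readout is the rate of fluorogenic substrate cleavage in rfu per min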
pIC50: −log10 of the molar value.
Assay metric: pIC50

Known results for compounds:
IN: Please indicate pIC50 recorded for Cn1cnc2c1CC[C@H]2NC(=O)c1cn(Cc2ccc(N3CC4CC4C3)cc2Br)cn1 (some centres unmarked) [Example 204]
OUT: 6.09

IN: Answer with reported pIC50 of Cc1cc(N2CC3C(C2)C3(F)F)nc(C)c1Cn1cnc(C(=O)N[C@@H]2CCc3c2ncn3C)c1 (some centres unmarked) [Example 111]
OUT: 5.38

IN: Output pIC50 of COCc1nc(N2CC3C(C2)C3(F)F)ccc1Cn1cc(C(=O)N[C@@H]2CCc3c2ncn3C)nn1 (some centres unmarked) [Example 55]
OUT: 6.60

IN: Give the measured pIC50 for Cn1cnc2c1CC[C@H]2NC(=O)c1cnn(Cc2ccc(N3CC4C(C3)C4(F)F)cc2C#N)c1 (some centres unmarked) [Example 208]
OUT: 7.10

IN: Specify pIC50 for Cc1c(Cn2cc(C(=O)N[C@@H]3CCc4c3ncn4C)cn2)ccc(N2CC3CC3C2)c1C#N (some centres unmarked) [Example 193] and stop.
OUT: 6.60

IN: Answer with the recorded pIC50 for the compound listed here: CCOCc1nc(N2CC3C(C2)C3(F)F)ccc1Cn1cc(C(=O)N[C@@H]2CCc3c2ncn3C)cn1 (some centres unmarked) [Example 179]
OUT: 6.41

[1] Cn1cnc2c1CC[C@H]2NC(=O)c1cnn(Cc2ccc(N3CC4C(C3)C4(F)F)cc2Br)c1 (some centres unmarked) [Example 209]
[2] CCc1nc(N2CC3(CC3)C2)ccc1Cn1cnc(C(=O)N[C@@H]2CCc3c2ncn3C)c1 [Example 37]
IN: In the pair 1 and 2 , the larger recorded pIC50 belongs to which? I would appreciate it if you answered with the label of your choice.
OUT: 2
